- System: NCI-H522 lung
- method_summary: NCI-60 one-dose screen, 48 h (100 = growth as untreated, 0 = no growth, -100 = all killed)
- test_conditions: 10 µM unless noted
Compounds without any hit were thinned out: in the full panel of roughly 83,000, 20% have a hit.
Hi! Could you tag entries with growth below 80% as rule met, and those at or above as rule not met? Much appreciated.

Known results for molecules:
molecule=COc1ccc([C@@H]2c3[nH]c4ccccc4c3C[C@H]3C(=O)N(C4CCN(CC5CCCCC5)CC4)CC(=O)N23)c(OC)c1 classification="rule not met"
molecule=Cn1cc(-c2nnc(N)nc2-c2c[nH]c3ccc(F)cc23)c2cc(F)ccc21 classification="rule met"
molecule=O=C(CN1CCN(c2cc(=O)n(-c3ccccc3)c3ccccc23)CC1)Nc1cccc(C(F)(F)F)c1 classification="rule met"

IN: Does O=C1[C@H]2Cc3c([nH]c4ccccc34)[C@@H](c3c(Cl)cccc3Cl)N2C(=O)CN1C1CCN(CC2CCCCC2)CC1 have growth strictly under 80%?
OUT: rule not met

IN: Does Nc1nc(N)c2c(n1)NC(c1ccc(C(F)(F)F)cc1)CC(c1ccc(Nc3nc(NCCO)nc(N4CCOCC4)n3)cc1)=N2 (stereo not drawn) have growth strictly under 80%?
OUT: rule met

IN: Does Cc1ccc(-c2nnc(SCc3ccc(O)c4ncccc34)o2)cc1 have growth strictly under 80%?
OUT: rule met

IN: Does CC1(COc2ccc3ncc(C#Cc4cncc(C(=O)Nc5cccc(C(F)(F)F)c5)c4)n3n2)COC1 have growth strictly under 80%?
OUT: rule met

IN: Does C=C=COc1cccc(/C(N)=N/C(N)=N/c2nc3ccccc3s2)c1 have growth strictly under 80%?
OUT: rule not met
